# T/C listing for each entry below
- System: P388 leukemia ip, CD2F1 mice, survival T/C
- PROTOCOL DESCRIPTION: NCI In Vivo Anticancer Drug Screen. Data for tumor model P388 Leukemia (intraperitoneal) in CD2F1 (CDF1) mice
- CONDITIONS: endpoint: median survival time; dose: 100.0 mg/kg/injection; schedule: Q01DX009 (ip); vehicle: Klucel (hydroxypropylcellulose) (HPC); higher = longer survival
Toxic doses and inconclusive results are not listed.

- SMILES REPRESENTATION: "COc1ccc(NC(=O)Nc2ccc(Cl)cc2)nn1"
  T/C: "101 % of control"
- SMILES REPRESENTATION: "O=S1(=O)CCN(CCCCc2ccccc2)CC1"
  T/C: "101 % of control"
- SMILES REPRESENTATION: "CC(/C=C/c1ccccc1)=N\\Nc1c(F)c(F)c(F)c(F)c1F"
  T/C: "102 % of control"
- SMILES REPRESENTATION: "Cc1sc(N=Nc2ccc(N(C)C)cc2)[n+]([O-])c1C"
  T/C: "102 % of control"
- SMILES REPRESENTATION: "CCCCCCCCCCOC(=O)c1ccccc1"
  T/C: "93 % of control"
- SMILES REPRESENTATION: "Cn1c(=S)sc2ccc(S(=O)(=O)C(F)F)cc21"
  T/C: "107 % of control"

---

- System: P388 leukemia ip, CD2F1 mice, survival T/C
- PROTOCOL DESCRIPTION: NCI In Vivo Anticancer Drug Screen. Data for tumor model P388 Leukemia (intraperitoneal) in CD2F1 (CDF1) mice
- CONDITIONS: endpoint: median survival time; dose: 50.0 mg/kg/injection; schedule: Q01DX005 (ip); vehicle: saline with Tween-80; higher = longer survival
Inconclusive results and toxic doses are left out.

- SMILES REPRESENTATION: "CC(C)(C)C1CCN(Cc2ccccc2)CC1"
  T/C: "103 % of control"
- SMILES REPRESENTATION: "CCN1N=Nc2ccccc2NC1=O"
  T/C: "101 % of control"
- SMILES REPRESENTATION: "CCOC(=O)c1sc(=S)n(CC)c1C"
  T/C: "107 % of control"
- SMILES REPRESENTATION: "COc1cc(/C=C(\\C#N)C(N)=O)cc(Br)c1O"
  T/C: "100 % of control"

---

- Tested on: P388 leukemia ip, CD2F1 mice, survival T/C
- PROTOCOL DESCRIPTION: NCI In Vivo Anticancer Drug Screen. Data for tumor model P388 Leukemia (intraperitoneal) in CD2F1 (CDF1) mice
- CONDITIONS: endpoint: median survival time; dose: 200.0 mg/kg/injection; schedule: Q01DX005 (ip); vehicle: saline with Tween-80; higher = longer survival
Toxic doses and inconclusive results are not listed.
QUANTITY: T/C

- MOLECULE: "CC(C)N=C1NS(=O)(=O)c2ccccc21"
  RESULT: "108 % of control"
- MOLECULE: "O=C(C(c1ccccc1)c1ccccc1)N1CCCCC1c1ccccc1 (stereo not drawn)"
  RESULT: "97 % of control"
- MOLECULE: "CCc1nc(N)nc(N)c1-c1ccc(N2CCN(C)CC2)cc1"
  RESULT: "99 % of control"
- MOLECULE: "COc1ccc(N=C(c2ccccc2)C2C(=O)c3ccccc3C2=O)cc1"
  RESULT: "112 % of control"
- MOLECULE: "COC1=CC2CCN3C=C(C#N)C(C#N)CC3C2C=C1OC (stereo not drawn)"
  RESULT: "111 % of control"
- MOLECULE: "c1ccc2c(c1)Cc1ccnnc1-2"
  RESULT: "92 % of control"
- MOLECULE: "CCCCOc1ccc(-c2cnc(-c3ccc(-c4ncc(-c5ccc(OCCCC)cc5)o4)cc3)o2)cc1"
  RESULT: "108 % of control"
- MOLECULE: "O=C(NN(CCO)CCO)c1ccccc1"
  RESULT: "100 % of control"
- MOLECULE: "Cn1c2ccccc2c(=O)c2cc(NC(=O)CCC(=O)Nc3ccc4c(c3)c(=O)c3ccccc3n4C)ccc21"
  RESULT: "97 % of control"
- MOLECULE: "Nc1ccc(N)c2c1C(=O)c1ccccc1C2=O"
  RESULT: "105 % of control"
- MOLECULE: "CCCCCC(C(=O)O)(c1ccccc1)c1ccccc1"
  RESULT: "106 % of control"
- MOLECULE: "Cc1nn(N)c2[nH]c(Cl)cc(=O)c12"
  RESULT: "116 % of control"
- MOLECULE: "COC(=O)/C=C/c1cccn1C(=O)c1c(Cl)cccc1Cl"
  RESULT: "87 % of control"
- MOLECULE: "CC(=O)C(=C/C=C/c1ccccc1)C(C)=O"
  RESULT: "100 % of control"
- MOLECULE: "CCN1N=Nc2ccccc2NC1=O"
  RESULT: "96 % of control"
- MOLECULE: "C=CC(c1ccccc1)c1cc2c(cc1OC)OCO2 (stereo not drawn)"
  RESULT: "100 % of control"
- MOLECULE: "CCN1CCCC(=O)C1"
  RESULT: "102 % of control"
- MOLECULE: "O=C(NCCCC1NC(=O)/C(=C(O)/C=C/C=C/c2ccccc2)C1=O)OCc1ccccc1 (stereo not drawn)"
  RESULT: "92 % of control"
- MOLECULE: "CC(=O)c1ccn[nH]1"
  RESULT: "110 % of control"
- MOLECULE: "CC1=Nc2ccccc2SC2(C1)C(C1COC(C)(C)O1)OC1OC(C)(C)OC12 (stereo not drawn)"
  RESULT: "92 % of control"
- MOLECULE: "Cc1c(NC(=S)Nc2ccccc2)c(=O)n(-c2ccccc2)n1C"
  RESULT: "89 % of control"
- MOLECULE: "O=C1OC(CCc2ccccc2O)c2ccccc21 (stereo not drawn)"
  RESULT: "93 % of control"
- MOLECULE: "Cc1cc(Nc2ccc(O)cc2)nc(N)n1"
  RESULT: "113 % of control"
- MOLECULE: "O=C1CN(c2cccc(Cl)c2)C(=O)CN1/N=C/c1ccc[nH]1"
  RESULT: "90 % of control"
- MOLECULE: "O=C(NCCCCC(NC(=O)c1ccccc1)C(=O)O)OCc1ccccc1 (stereo not drawn)"
  RESULT: "92 % of control"
- MOLECULE: "Nc1nc(N)c2ncn(-c3ccc(Br)cc3)c2n1"
  RESULT: "91 % of control"
- MOLECULE: "COc1cc(/C=C(\\C#N)C(N)=O)cc(Br)c1O"
  RESULT: "100 % of control"
- MOLECULE: "Cc1ccc(N2CCOS(=O)OCC2)cc1"
  RESULT: "101 % of control"
- MOLECULE: "CC1C2c3ccccc3C(c3ccccc32)C1C(=O)O (stereo not drawn)"
  RESULT: "107 % of control"
- MOLECULE: "CC(C)(C)OCC(NC(=O)OC(C)(C)C)C(=O)O (stereo not drawn)"
  RESULT: "97 % of control"
- MOLECULE: "Cc1cccc(Nc2nnc(Nc3cccc(C)n3)c3ccccc23)n1"
  RESULT: "92 % of control"
- MOLECULE: "COc1cc(C2c3cc(O)c(OC)cc3CC(C(=O)O)C2CO)ccc1O (stereo not drawn)"
  RESULT: "98 % of control"
- MOLECULE: "c1ccc(C2=NC(c3ccccc3)=NS(S3=NC(c4ccccc4)=NC(c4ccccc4)=N3)=N2)cc1 (stereo not drawn)"
  RESULT: "88 % of control"
- MOLECULE: "CC1=NN(C(=O)CC(=O)Nc2ccc(C(=O)O)cc2)C(=O)C1N=Nc1ccc(S(N)(=O)=O)cc1 (stereo not drawn)"
  RESULT: "93 % of control"
- MOLECULE: "O=C1NC(=O)C2(OC3c4ccccc4C=CN3C3=C2C(=O)CC3)C(=O)N1 (stereo not drawn)"
  RESULT: "91 % of control"
- MOLECULE: "Cc1cc(C)c(C#N)c(SCC#CCSc2nc(C)cc(C)c2C#N)n1"
  RESULT: "91 % of control"
- MOLECULE: "O=C(c1cc(Nc2ccnc3cc(Cl)ccc23)ccc1O)N1CCC(O)(c2ccccc2)CC1"
  RESULT: "109 % of control"
- MOLECULE: "C/C(N=NC(=S)N1CC2CCC(CC2)C1)=C1\\C=CC=CN1O"
  RESULT: "101 % of control"
- MOLECULE: "CCOC(=O)c1n[nH]c(C)c1C/C(=N/O)c1ccccc1"
  RESULT: "92 % of control"
- MOLECULE: "CC1=C2[C@H]3OC(=O)[C@@H](C)[C@@H]3CC[C@@]2(C)C=C/C1=N\\O"
  RESULT: "96 % of control"
- MOLECULE: "COC1=CC(C(=O)O)C=C(OC)C1"
  RESULT: "89 % of control"
- MOLECULE: "CCOC(=O)CC(=O)c1sc(SC)c(C#N)c1N"
  RESULT: "93 % of control"
- MOLECULE: "OCCCCCOCCOCCOCCOCCOCCCCCO"
  RESULT: "96 % of control"

Data provenance: PubChem BioAssay AID330
